- Study system: DQA1*0501/DQB1*0201 (DQ2)
- Procedure summary: binding to purified HLA

- Binder: "GSISYPARYANAMAV [B. lentus 157]"
  IC50: "6160 nM"
- Binder: "SYPARYANAMAVGAT [B. lentus .160]"
  IC50: "1300 nM"
- Binder: "GTVAALNNSIGVLGV [BPN' Y217L .70]"
  IC50: "670 nM"
- Binder: "NGIEWAIANNMDVIN [BPN' Y217L .109]"
  IC50: "97 nM"
